- Test system: Candida glabrata ATCC 15126
- Format: cell-based
Non-standard residues stand in square brackets, D forms with d. Residues, ends and D or L forms follow the SMILES beside them. dPhe(3,4-F2) = N[C@H](Cc1ccc(F)c(F)c1)C(=O)O; d2Nal = N[C@H](Cc1ccc2ccccc2c1)C(=O)O
I'd be grateful if you could share measured MIC Candida glabrata ATCC 15126 for these entries.
Numbers only, in µg/mL.

Solved cases (4 shown):
{"Compound": "CC(=O)N[C@H](CCCNC(=N)N)C(=O)N[C@H](CCCCN)C(=O)N[C@H](C)C(=O)N[C@H](C)C(=O)N[C@H](Cc1ccc2ccccc2c1)C(=O)N[C@H](CCCNC(=N)N)C(=O)N[C@H](C)C(=O)N[C@H](CCCCN)C(=O)N[C@H](Cc1ccc2ccccc2c1)C(=O)N[C@H](CCCNC(=N)N)C(=O)N[C@H](CCCCN)C(N)=O [LV-15] (Ac-[dR][dK][dA][dA][d2Nal][dR][dA][dK][d2Nal][dR][dK]-NH2)", "Measured on": "Candida glabrata ATCC 15126", "MIC Candida glabrata ATCC 15126 [µg/mL]": 4}
{"Compound": "CC(=O)N[C@H](CCCCN)C(=O)N[C@H](CCCCN)C(=O)N[C@H](CC(C)C)C(=O)N[C@H](CC(C)C)C(=O)N[C@H](Cc1ccc(F)c(F)c1)C(=O)N[C@H](CCCNC(=N)N)C(=O)N[C@H](CC(C)C)C(=O)N[C@H](CCCCN)C(=O)N[C@H](Cc1ccc(F)c(F)c1)C(=O)N[C@H](CCCNC(=N)N)C(=O)N[C@H](CCCCN)C(N)=O [LV-25] (Ac-[dK][dK][dL][dL][dPhe(3,4-F2)][dR][dL][dK][dPhe(3,4-F2)][dR][dK]-NH2)", "Measured on": "Candida glabrata ATCC 15126", "MIC Candida glabrata ATCC 15126 [µg/mL]": 8}
{"Compound": "CC(=O)N[C@H](CCCNC(=N)N)C(=O)N[C@H](CCCNC(=N)N)C(=O)N[C@H](CC(C)C)C(=O)N[C@H](CC(C)C)C(=O)N[C@H](Cc1ccc2ccccc2c1)C(=O)N[C@H](CCCNC(=N)N)C(=O)N[C@H](CC(C)C)C(=O)N[C@H](CCCNC(=N)N)C(=O)N[C@H](Cc1ccc2ccccc2c1)C(=O)N[C@H](CCCNC(=N)N)C(=O)N[C@H](CCCNC(=N)N)C(N)=O [LV-1] (Ac-[dR][dR][dL][dL][d2Nal][dR][dL][dR][d2Nal][dR][dR]-NH2)", "Measured on": "Candida glabrata ATCC 15126", "MIC Candida glabrata ATCC 15126 [µg/mL]": 8}
{"Compound": "CC(=O)N[C@H](CCCNC(=N)N)C(=O)N[C@H](CCCCN)C(=O)N[C@H](CC(C)C)C(=O)N[C@H](CC(C)C)C(=O)N[C@H](Cc1ccc2ccccc2c1)C(=O)N[C@H](CCCNC(=N)N)C(=O)N[C@H](CC(C)C)C(=O)N[C@H](CCCCN)C(=O)N[C@H](Cc1ccc2ccccc2c1)C(=O)N[C@H](CCCNC(=N)N)C(=O)N[C@H](CCCNC(=N)N)C(N)=O [LV-22] (Ac-[dR][dK][dL][dL][d2Nal][dR][dL][dK][d2Nal][dR][dR]-NH2)", "Measured on": "Candida glabrata ATCC 15126", "MIC Candida glabrata ATCC 15126 [µg/mL]": 8}

Here's the next entry for you.
-- ask Requested read-out: MIC Candida glabrata ATCC 15126. Entry: CC(=O)N[C@H](CCCCN)C(=O)N[C@H](CCCCN)C(=O)N[C@H](CC(C)C)C(=O)N[C@H](CC(C)C)C(=O)N[C@H](Cc1ccc2ccccc2c1)C(=O)N[C@H](CCCCN)C(=O)N[C@H](CC(C)C)C(=O)N[C@H](CCCCN)C(=O)N[C@H](Cc1ccc2ccccc2c1)C(=O)N[C@H](CCCCN)C(=O)N[C@H](CCCCN)C(N)=O [LV-17] (Ac-[dK][dK][dL][dL][d2Nal][dK][dL][dK][d2Nal][dK][dK]-NH2)
-- reply 8

Data credit: patent US20250304620A1
